biological target: human κ-opioid receptor (Homo sapiens (Human)); experiment: Forskolin-stimulated cAMP inhibition in HEK293 cells, κ-opioid receptor agonism; format: cell-based; conditions: HEK293 cells highly expressing human κ-opioid receptor, read-out: KOR (EC50)
Observed Property: EC50 (pM)
Kindly provide the numeric value in pM only, without the unit symbol.

# query: EC50 of entry CC(C)C[C@@H](NC(=O)[C@@H](Cc1ccccc1)NC(=O)[C@H](N)Cc1ccccc1)C(=O)N[C@H](CCCCN)C(=O)N1CCCC[C@H]1B(O)O [TM-13A]
94.6

Then CC(C)C[C@@H](NC(=O)[C@@H](Cc1ccccc1)NC(=O)[C@H](N)Cc1ccccc1)C(=O)N[C@H](CCCCN)C(=O)N1CCC=C(B(O)O)C1 ?
27

Try CC(C)C[C@@H](NC(=O)[C@@H](Cc1ccccc1)NC(=O)[C@H](N)Cc1ccccc1)C(=O)N[C@H](CCCCN)C(=O)N1CCC(B(O)O)CC1 next.
98.4

Please give the result for CC(C)C[C@@H](NC(=O)[C@@H](Cc1ccccc1)NC(=O)[C@H](N)Cc1ccccc1)C(=O)N[C@H](CCCCN)C(=O)N1CC[C@@H](B(O)O)C1 too.
33.1

// repeat for CC(C)C[C@@H](NC(=O)[C@@H](Cc1ccccc1)NC(=O)[C@H](N)Cc1ccccc1)C(=O)N[C@H](CCCCN)C(=O)N1CCC2(CC1)CC(B(O)O)C2 and report
8.7

###

target: cytochrome P450 CYP 2C9 (Homo sapiens (Human), UniProt P11712); test: Inhibition of cytochrome P450 in human liver microsomes, CYP 2C9; format: in vitro ADME
Sequence (P11712 whole entry): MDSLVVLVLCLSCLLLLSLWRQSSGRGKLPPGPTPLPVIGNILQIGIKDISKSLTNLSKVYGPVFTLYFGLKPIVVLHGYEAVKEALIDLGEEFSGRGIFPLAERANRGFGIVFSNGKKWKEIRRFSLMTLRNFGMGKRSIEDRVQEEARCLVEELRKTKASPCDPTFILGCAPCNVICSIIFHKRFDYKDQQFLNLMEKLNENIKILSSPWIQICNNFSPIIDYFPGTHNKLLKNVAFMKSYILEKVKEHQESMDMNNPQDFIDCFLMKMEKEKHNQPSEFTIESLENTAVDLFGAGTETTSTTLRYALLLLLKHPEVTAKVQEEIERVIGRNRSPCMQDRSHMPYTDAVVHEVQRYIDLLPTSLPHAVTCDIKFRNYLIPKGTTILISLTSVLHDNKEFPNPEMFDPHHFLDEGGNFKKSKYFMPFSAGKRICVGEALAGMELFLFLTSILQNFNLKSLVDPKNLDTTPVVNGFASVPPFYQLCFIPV
Observed Property: IC50

Given the molecule COCCOCCNCCCC[C@@H](NC(=O)[C@@H](CC(C)C)NC(=O)[C@@H](Cc1ccccc1)NC(=O)[C@H](N)Cc1ccccc1)C(=O)N1CC[C@H](B(O)O)C1 [TM-22B] , what is its reported IC50?
> 50 µM

###

target: cytochrome P450 CYP 2C19 (Homo sapiens (Human), UniProt P33261); assay: Inhibition of cytochrome P450 in human liver microsomes, CYP 2C19; type: in vitro ADME
Sequence (P33261 whole entry): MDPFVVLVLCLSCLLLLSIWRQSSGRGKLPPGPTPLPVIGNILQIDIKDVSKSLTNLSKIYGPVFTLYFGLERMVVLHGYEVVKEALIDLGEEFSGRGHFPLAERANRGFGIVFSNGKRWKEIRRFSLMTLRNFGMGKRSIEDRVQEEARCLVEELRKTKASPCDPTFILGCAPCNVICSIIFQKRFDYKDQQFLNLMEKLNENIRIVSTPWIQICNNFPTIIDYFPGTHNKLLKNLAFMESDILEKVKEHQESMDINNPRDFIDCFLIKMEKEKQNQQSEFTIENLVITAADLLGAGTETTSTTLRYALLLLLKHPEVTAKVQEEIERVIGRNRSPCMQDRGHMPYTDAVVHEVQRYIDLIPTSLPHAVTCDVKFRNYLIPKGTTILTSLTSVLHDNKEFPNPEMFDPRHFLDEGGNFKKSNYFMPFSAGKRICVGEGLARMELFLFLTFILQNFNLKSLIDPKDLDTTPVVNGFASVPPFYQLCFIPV
Observed Property: IC50

Please report the recorded IC50 for COCCOCCNCCCC[C@@H](NC(=O)[C@@H](CC(C)C)NC(=O)[C@@H](Cc1ccccc1)NC(=O)[C@H](N)Cc1ccccc1)C(=O)N1CC[C@H](B(O)O)C1 [TM-22B] .
> 50 µM

###

For each of the compounds below, state its Papp A→B at 120 min, 5 μM.
assay: Caco-2 membrane permeability assay; assay type: in vitro ADME; conditions: human, Caco-2, A-B direction, pH 7.4, 37° C.

Look at this compound and give its reported Papp A→B at 120 min, 5 μM. CC(C)C[C@@H](NC(=O)[C@@H](Cc1ccccc1)NC(=O)[C@H](N)Cc1ccccc1)C(=O)N[C@H](CCCCN)C(=O)N1CCC[C@H]1B(O)O
< 0.05 ×10⁻⁶ cm/s

Cool, now COCCOCCNCCCC[C@@H](NC(=O)[C@@H](CC(C)C)NC(=O)[C@@H](Cc1ccccc1)NC(=O)[C@H](N)Cc1ccccc1)C(=O)N1CC[C@H](B(O)O)C1 [TM-22B]
< 0.1 ×10⁻⁶ cm/s

Similarly, CC(C)C[C@@H](NC(=O)[C@@H](Cc1ccccc1)NC(=O)[C@H](N)Cc1ccccc1)C(=O)N[C@H](CCCCN)C(=O)N1CC[C@@H](B(O)O)C1 ?
< 0.05 ×10⁻⁶ cm/s

Now this one: CC(C)C[C@@H](NC(=O)[C@@H](Cc1ccccc1)NC(=O)[C@H](N)Cc1ccccc1)C(=O)N[C@H](CCCCN)C(=O)NCCB(O)O
< 0.1 ×10⁻⁶ cm/s

Repeat for the following compound: CC(C)C[C@@H](NC(=O)[C@@H](Cc1ccccc1)NC(=O)[C@H](N)Cc1ccccc1)C(=O)N[C@H](CCCCN)C(=O)N1CCC(N)(B(O)O)CC1
< 0.1 ×10⁻⁶ cm/s

Check CC(C)C[C@@H](NC(=O)[C@@H](Cc1ccccc1)NC(=O)[C@H](N)Cc1ccccc1)C(=O)N[C@H](CCCCN)C(=O)N1CC=C(B(O)O)C1 too.
< 0.2 ×10⁻⁶ cm/s

###

target: cytochrome P450 CYP 2C19 (Homo sapiens (Human)); experiment: Inhibition of cytochrome P450 in human liver microsomes, CYP 2C19; assay type: in vitro ADME; details: microsomes
Observed Property: IC50

Could you share which IC50 value was measured for CC(C)C[C@@H](NC(=O)[C@@H](Cc1ccccc1)NC(=O)[C@H](N)Cc1ccccc1)C(=O)N[C@H](CCCCN)C(=O)NCCB(O)O ?
> 50 µM

###

target: cytochrome P450 CYP 2D6 (Homo sapiens (Human)); experiment: Inhibition of cytochrome P450 in human liver microsomes, CYP 2D6; type: in vitro ADME
Observed Property: IC50

Suppose we examine the compound COCCOCCNCCCC[C@@H](NC(=O)[C@@H](CC(C)C)NC(=O)[C@@H](Cc1ccccc1)NC(=O)[C@H](N)Cc1ccccc1)C(=O)N1CC[C@H](B(O)O)C1 [TM-22B] ; what IC50 value has been reported?
> 50 µM

###

Record form. Attribute: pEC50. Fill in for each entry.
biological target: human μ-opioid receptor (Homo sapiens (Human), UniProt P35372); test: Forskolin-stimulated cAMP inhibition in HEK293 cells, μ-opioid receptor; details: HEK293 cells highly expressing human μ-opioid receptor, read-out: MOR (EC50)
pEC50: −log10 of the molar value.

Please give the measured pEC50 for this compound: CC(C)C[C@@H](NC(=O)[C@@H](Cc1ccccc1)NC(=O)[C@H](N)Cc1ccccc1)C(=O)N[C@H](CCCCN)C(=O)N1CCC2(CC1)CC(B(O)O)C2 [TM-7]
< 5.00

Then what about the compound CC(C)C[C@@H](NC(=O)[C@@H](Cc1ccccc1)NC(=O)[C@H](N)Cc1ccccc1)C(=O)N[C@H](CCCCN)C(=O)N1CCC(N)(B(O)O)CC1 [TM-8] ?
< 5.00

Then CC(C)C[C@@H](NC(=O)[C@@H](Cc1ccccc1)NC(=O)[C@H](N)Cc1ccccc1)C(=O)N[C@H](CCCCN)C(=O)N1CC=C(B(O)O)C1 [TM-3] ?
< 5.00

###

target: cytochrome P450 CYP 1A2 (Homo sapiens (Human)); assay: Inhibition of cytochrome P450 in human liver microsomes, CYP 1A2; format: in vitro ADME; settings: microsomes
Sequence (P05177 whole entry): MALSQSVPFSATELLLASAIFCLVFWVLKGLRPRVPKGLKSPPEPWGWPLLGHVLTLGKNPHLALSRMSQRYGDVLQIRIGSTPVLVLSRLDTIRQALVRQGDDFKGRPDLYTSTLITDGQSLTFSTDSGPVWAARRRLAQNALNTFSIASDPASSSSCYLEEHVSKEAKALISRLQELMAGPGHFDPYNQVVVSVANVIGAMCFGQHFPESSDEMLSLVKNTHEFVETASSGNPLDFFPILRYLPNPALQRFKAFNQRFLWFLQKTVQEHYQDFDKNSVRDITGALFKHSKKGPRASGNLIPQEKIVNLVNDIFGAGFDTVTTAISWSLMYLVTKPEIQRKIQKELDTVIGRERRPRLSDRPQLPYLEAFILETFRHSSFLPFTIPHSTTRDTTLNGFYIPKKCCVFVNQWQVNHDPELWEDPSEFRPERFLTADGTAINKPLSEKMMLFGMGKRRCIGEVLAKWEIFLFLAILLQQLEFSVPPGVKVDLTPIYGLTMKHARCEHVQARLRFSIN
pIC50: −log10 of the molar value.
Observed Property: pIC50

Suppose we examine the compound CC(C)C[C@@H](NC(=O)[C@@H](Cc1ccccc1)NC(=O)[C@H](N)Cc1ccccc1)C(=O)N[C@H](CCCCN)C(=O)NCCB(O)O ; what pIC50 value has been reported?
< 4.30

###

Biological target: cytochrome P450 CYP 3A4 (Homo sapiens (Human))
Sequence (P08684 whole entry): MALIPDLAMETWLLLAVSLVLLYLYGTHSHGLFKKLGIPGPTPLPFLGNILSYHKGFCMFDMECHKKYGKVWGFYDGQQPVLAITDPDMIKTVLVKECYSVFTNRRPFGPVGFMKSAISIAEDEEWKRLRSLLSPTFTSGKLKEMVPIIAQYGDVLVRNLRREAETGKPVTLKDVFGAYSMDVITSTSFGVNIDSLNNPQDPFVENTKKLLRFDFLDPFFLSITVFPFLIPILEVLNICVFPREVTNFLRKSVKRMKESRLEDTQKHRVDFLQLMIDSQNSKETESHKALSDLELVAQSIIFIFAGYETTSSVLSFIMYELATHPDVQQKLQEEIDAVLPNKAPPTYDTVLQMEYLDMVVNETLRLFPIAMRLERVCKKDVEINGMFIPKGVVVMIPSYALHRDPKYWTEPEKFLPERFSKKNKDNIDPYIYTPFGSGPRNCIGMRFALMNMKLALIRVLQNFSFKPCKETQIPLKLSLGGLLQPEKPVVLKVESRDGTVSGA
Experiment: Inhibition of cytochrome P450 in human liver microsomes, CYP 3A4
Format: in vitro ADME
Details: microsomes
Procedure: The human liver microsomes (0.253 mg/mL protein) containing cytochrome P450, test compounds (0.05-50 μM), CYPs substrates (10 μM […], 5 μM diclofenac, 30 μM mephenytoin, 5 μM dextromethorphan hydrobromide, 2 μM midazolam), 1.0 mM NADP were incubated at 37° C. for 10 minutes. Naflavone, sulfafenpyrazole, N-3-benzylnivan, quinidine, and ketoconazole were used as reference inhibitors.
Observed Property: IC50

Bench note: what IC50 did CC(C)C[C@@H](NC(=O)[C@@H](Cc1ccccc1)NC(=O)[C@H](N)Cc1ccccc1)C(=O)N[C@H](CCCCN)C(=O)NCCB(O)O show?
> 50 µM

###

Molecular target: cytochrome P450 CYP 2D6 (Homo sapiens (Human), UniProt P10635)
Sequence (P10635 whole entry): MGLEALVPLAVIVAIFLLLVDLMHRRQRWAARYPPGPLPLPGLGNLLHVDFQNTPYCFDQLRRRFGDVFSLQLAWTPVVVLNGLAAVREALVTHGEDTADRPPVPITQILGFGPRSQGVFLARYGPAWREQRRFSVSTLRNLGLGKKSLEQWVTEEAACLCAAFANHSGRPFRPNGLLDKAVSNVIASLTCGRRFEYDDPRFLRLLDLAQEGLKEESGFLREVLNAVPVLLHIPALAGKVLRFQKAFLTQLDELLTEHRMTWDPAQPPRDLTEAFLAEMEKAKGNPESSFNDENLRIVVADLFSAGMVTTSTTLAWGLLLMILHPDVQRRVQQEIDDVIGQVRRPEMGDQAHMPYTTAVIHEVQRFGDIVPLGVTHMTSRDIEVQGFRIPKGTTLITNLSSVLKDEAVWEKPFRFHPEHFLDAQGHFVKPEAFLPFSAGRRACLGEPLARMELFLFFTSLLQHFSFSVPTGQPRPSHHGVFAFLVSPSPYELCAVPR
Assay: Inhibition of cytochrome P450 in human liver microsomes, CYP 2D6
Format: in vitro ADME
Conditions: microsomes
Experimental: The human liver microsomes (0.253 mg/mL protein) containing cytochrome P450, test compounds (0.05-50 μM), CYPs substrates (10 μM […], 5 μM diclofenac, 30 μM mephenytoin, 5 μM dextromethorphan hydrobromide, 2 μM midazolam), 1.0 mM NADP were incubated at 37° C. for 10 minutes. Naflavone, sulfafenpyrazole, N-3-benzylnivan, quinidine, and ketoconazole were used as reference inhibitors.
pIC50: −log10 of the molar value.
Observed Property: pIC50

Recorded pIC50 for CC(C)C[C@@H](NC(=O)[C@@H](Cc1ccccc1)NC(=O)[C@H](N)Cc1ccccc1)C(=O)N[C@H](CCCCN)C(=O)NCCB(O)O [TM-26] , please?
< 4.30

###

target: human κ-opioid receptor (Homo sapiens (Human)); assay: Forskolin-stimulated cAMP inhibition in HEK293 cells, κ-opioid receptor agonism; conditions: HEK293 cells highly expressing human κ-opioid receptor, read-out: KOR (EC50)
Observed Property: EC50 (pM)
Give the quantity in pM, number only.

Reported EC50, compound CC(C)C[C@@H](NC(=O)[C@@H](Cc1ccccc1)NC(=O)[C@H](N)Cc1ccccc1)C(=O)N[C@H](CCCCN)C(=O)N1CCC(N)(B(O)O)CC1 [TM-8] : ____
84.6

Entry to check: CC(C)C[C@@H](NC(=O)[C@@H](Cc1ccccc1)NC(=O)[C@H](N)Cc1ccccc1)C(=O)N[C@H](CCCCN)C(=O)N1CC=C(B(O)O)C1 [TM-3]
54.7

Proceed to COCCOCCNCCCC[C@@H](NC(=O)[C@@H](CC(C)C)NC(=O)[C@@H](Cc1ccccc1)NC(=O)[C@H](N)Cc1ccccc1)C(=O)N1CC[C@H](B(O)O)C1 [TM-22B]
9.5

From: patent US11643436B2
